assay.details: Single rising oral dose (10-150 mg IR) safety, tolerance and pharmacokinetics in healthy male volunteers
Assay type: in vivo, human
conditions: male, human, plasma, oral, 25 mg, Median
test.readout: AUC(0-inf) (ng·h/mL)
Expressed in ng·h/mL, but write only the number.

Request: Item `Clc1ccc([C@]23CNC[C@H]2C3)cc1Cl` has what recorded AUC(0-inf)?
Result: 1300

----------
assay.details: Single rising oral dose (10-150 mg IR) safety, tolerance and pharmacokinetics in healthy male volunteers
Type: in vivo, human
conditions: male, human, plasma, oral, 50 mg, Median
test.readout: AUC(0-inf) (ng·h/mL)
Expressed in ng·h/mL, but write only the number.

Request: Item Clc1ccc([C@]23CNC[C@H]2C3)cc1Cl [amitifadine] has what recorded AUC(0-inf)?
Result: 2200

----------
assay.details: 26-week rat toxicity and toxicokinetic study
Format: in vivo
conditions: male, Crl:CD(SD)IGS BR, rat, in vivo, po, 8 mg/kg/day, males, 8 mg/kg/day, Day 177
test.readout: Cmax (µg/mL)
Expressed in µg/mL, but write only the number.

Request: Item `Clc1ccc([C@]23CNC[C@H]2C3)cc1Cl` has what recorded Cmax?
Result: 0.954

----------
assay.details: Single-dose (25 mg) gender study in males and females (DOV-947-005)
Format: in vivo, human
conditions: female, human, in vivo; single oral dose 25 mg; Females (N = 38)
test.readout: AUC(0-inf)
Value and unit, in that order.

Request: Item Clc1ccc([C@]23CNC[C@H]2C3)cc1Cl [amitifadine] has what recorded AUC(0-inf)?
Result: 1590 ng·h/mL

----------
assay.details: 2-week dog toxicity and toxicokinetic study
Type: in vivo
conditions: female, beagle, in vivo, po, 5 mg/kg/day, females, 5 mg/kg/day, Day 0
test.readout: Cmax (ng/mL)
Expressed in ng/mL, but write only the number.

Request: Item `Clc1ccc([C@]23CNC[C@H]2C3)cc1Cl` has what recorded Cmax?
Result: 1650

----------
assay.details: 13-week rat toxicity and toxicokinetic study
Type: in vivo
conditions: female, Crl:CD(SD)IGS BR, rat, in vivo, po, 60 mg/kg/day, females, 60 mg/kg/day, Day 0
test.readout: Tmax (h)
Expressed in h, but write only the number.

Request: Item `Clc1ccc([C@]23CNC[C@H]2C3)cc1Cl` has what recorded Tmax?
Result: 2

----------
assay.details: Single rising oral dose (10-150 mg IR) safety, tolerance and pharmacokinetics in healthy male volunteers
Format: in vivo, human
conditions: male, human, plasma, oral, 50 mg, Geometric Mean; read-out: AUC0-t
test.readout: AUC(0-t) (ng·h/mL)
Expressed in ng·h/mL, but write only the number.

Request: Item Clc1ccc([C@]23CNC[C@H]2C3)cc1Cl [amitifadine] has what recorded AUC(0-t)?
Result: 2320

----------
assay.details: 2-week rat toxicology and toxicokinetic study
Format: in vivo
conditions: female, Crl:CD (SD)IGS BR, rat, in vivo, po, 10 mg/kg/day, females, 10 mg/kg/day, Day 0; read-out: AUC0-24
test.readout: AUC(0-t) (ng·h/mL)
Expressed in ng·h/mL, but write only the number.

Request: Item `Clc1ccc([C@]23CNC[C@H]2C3)cc1Cl` has what recorded AUC(0-t)?
Result: 11600

----------
assay.details: Single rising oral dose (10-150 mg IR) safety, tolerance and pharmacokinetics in healthy male volunteers
Type: in vivo, human
conditions: male, human, plasma, oral, 25 mg, Geometric Mean
test.readout: AUC(0-inf) (ng·h/mL)
Expressed in ng·h/mL, but write only the number.

Request: Item Clc1ccc([C@]23CNC[C@H]2C3)cc1Cl [amitifadine] has what recorded AUC(0-inf)?
Result: 1430
